Tested on: Coxsackievirus
assay-remarks: Inhibitory concentration of compound against formation of Coxsackievirus B1 plaque in plaque reduction assay
Type: functional, organism-based
reported-conditions: Coxsackievirus
quantity-kind: pIC50
Value format note: pIC50 is -log10 of concentration (mol/L); just state the number.

Exam item: Form field: reported pIC50 of c1ccc(C(c2ccccc2)N2CCN(c3ncnc4c3cnn4-c3ccccc3)CC2)cc1
Marked response: 6.16

---

Test system: Enterovirus
assay-remarks: Inhibitory concentration to prevent formation of Enterovirus (EV 71) plaques
Type: functional, organism-based
Cut-off 0.4 µM on IC50: below means fulfilled, at or above means not fulfilled.

Solved entries:
Clc1ccc(C(c2ccccc2)N2CCN(c3ncnc4c3cnn4-c3ccccc3)CC2)cc1 (stereo not given) :: not fulfilled
c1ccc(C(c2nccs2)N2CCN(c3ncnc4c3cnn4-c3ccccc3)CC2)cc1 (stereo not given) :: fulfilled
c1ccc(C(c2ccccn2)N2CCN(c3ncnc4c3cnn4-c3ccccc3)CC2)cc1 (stereo not given) :: fulfilled

Kindly review the next compound as well.
Exam item: is_below(IC50, 0.4 µM) for Cc1ccsc1C(c1c(C)noc1C)N1CCN(c2ncnc3c2cnn3-c2ccccc2)CC1 (stereo not given) ?
Marked response: not fulfilled
